Reference source: BigSolDB 2.1

Test Settings: in acetonitrile, 323.15 K
Attribute Measured: solubility (mole fraction)
// print number alone

Data request: solubility (mole fraction) for O=C1Nc2ccccc2C1=O ?
Data returned: 0.0136

---

Test Settings: in toluene, 308.15 K
Attribute Measured: solubility (mole fraction)
In your answer, state the number alone without any accompanying words.

Data request: Quick check: solubility (mole fraction) of O=C1Nc2ccccc2C1=O ?
Data returned: 0.000771

---

Test Settings: in ethyl acetate, 318.15 K
Attribute Measured: solubility (mole fraction)
Give the figure by itself; no unit, no explanation.

Data request: Can you share its solubility (mole fraction)? I mean this compound: O=C1Nc2ccccc2C1=O
Data returned: 0.0092
